assay_explanation: Cytotoxicity assay in MT-4 cells
Assay type: cell-based
measurement_parameters: human, Cell-Titer Glo
attribute_measured: CC50 at 5 days (µM)
Number in µM, nothing else.

q: # CC50 at 5 days lookup, item Nc1ncnn2c([C@@H]3O[C@H](CO)[C@@H](O)[C@H]3F)ccc12 [reference compound]
a: 30

q: Moving on to the next compound: CC(C)(C)C(=O)SCCOP(=O)(OCCSC(=O)C(C)(C)C)OC[C@@]1(C#N)O[C@@H](c2ccc3c(N)ncnn23)[C@H](F)[C@@H]1O [Example 11]
a: 19.7

q: Moving on to the next compound: CCC(CC)COC(=O)[C@H](C)NP(=O)(OC[C@@]1(C#N)O[C@@H](c2ccc3c(N)ncnn23)C(F)C1O)Oc1ccccc1 (stereo partly drawn) [Example 12]
a: 27

q: Moving on to the next compound: C=C[C@]1(COP(=O)(OCCSC(=O)C(C)(C)C)OCCSC(=O)C(C)(C)C)O[C@@H](c2ccc3c(N)ncnn23)[C@H](F)[C@@H]1O [Example 15]
a: 7.9

q: Moving on to the next compound: N#C[C@]1(CO)O[C@@H](c2cc(F)c3c(N)ncnn23)[C@H](F)[C@@H]1O [Example 23]
a: 21
